- System: ^3 H-Norepinephrine release, rat hippocampus slices
- experiment notes: Ligand-stimulated ^3 H-norepinephrine release from rat hippocampus slices
- Assay type: cell-based
- condition set: in vitro slices, 300 μM
readout kind: percent fractional release, ^3 H-Norepinephrine, Hippocampus
Param answer (str): number followed by unit.

Could you tell me which percent fractional release, ^3 H-Norepinephrine, Hippocampus is on file for COc1ccc(-c2cncc(C3CCCN3C)c2)cc1F.O=C(O)/C=C/C(=O)O (stereo not drawn) ? 0.73%

Then CN1CCCC1c1cncc(-c2ccc(F)cc2)c1.O=C(O)/C=C/C(=O)O (stereo not drawn) ? 0.58%

Then C#Cc1cncc(C2CCCN2C)c1.O=C(O)/C=C/C(=O)O (racemic) [R^5 = ethynyl (racemic)] ? 0.69%

* * *

- Test system: ^3 H-Norepinephrine release, rat hippocampus slices
- experiment notes: Ligand-stimulated ^3 H-norepinephrine release from rat hippocampus slices
- Format: cell-based
- condition set: in vitro slices, 300 μM
readout kind: percent fractional release, ^3 H-Norepinephrine, Hippocampus (%)
Value expressed in %; do not type the unit.

Could you tell me which percent fractional release, ^3 H-Norepinephrine, Hippocampus is on file for CN1CCCC1c1cncc(-c2ccc(O)c(Cl)c2)c1.O=C(O)/C=C/C(=O)O (stereo not shown) [R^5 = 3-chloro-4-hydroxyphenyl] ? 2.5

Then CN1CCCC1c1cncc(-c2ccc(O)c(F)c2)c1.O=C(O)/C=C/C(=O)O (stereo not shown) [R^5 = 3-fluoro-4-hydroxyphenyl] ? 1.47

Then CN1CCCC1c1cncc(-c2cccc(Cl)c2)c1.O=C(O)/C=C/C(=O)O (stereo not shown) [R^5 = 3-chlorophenyl] ? 1.45

Then CN1CCCC1c1cncc(-c2ccc(-c3ccccc3)cc2)c1 (stereo not shown) [R^5 = 4-biphenyl] ? 2.9
